Target: recombinant RSV complex (Human respiratory syncytial virus A)
Sequence (P28887 whole entry): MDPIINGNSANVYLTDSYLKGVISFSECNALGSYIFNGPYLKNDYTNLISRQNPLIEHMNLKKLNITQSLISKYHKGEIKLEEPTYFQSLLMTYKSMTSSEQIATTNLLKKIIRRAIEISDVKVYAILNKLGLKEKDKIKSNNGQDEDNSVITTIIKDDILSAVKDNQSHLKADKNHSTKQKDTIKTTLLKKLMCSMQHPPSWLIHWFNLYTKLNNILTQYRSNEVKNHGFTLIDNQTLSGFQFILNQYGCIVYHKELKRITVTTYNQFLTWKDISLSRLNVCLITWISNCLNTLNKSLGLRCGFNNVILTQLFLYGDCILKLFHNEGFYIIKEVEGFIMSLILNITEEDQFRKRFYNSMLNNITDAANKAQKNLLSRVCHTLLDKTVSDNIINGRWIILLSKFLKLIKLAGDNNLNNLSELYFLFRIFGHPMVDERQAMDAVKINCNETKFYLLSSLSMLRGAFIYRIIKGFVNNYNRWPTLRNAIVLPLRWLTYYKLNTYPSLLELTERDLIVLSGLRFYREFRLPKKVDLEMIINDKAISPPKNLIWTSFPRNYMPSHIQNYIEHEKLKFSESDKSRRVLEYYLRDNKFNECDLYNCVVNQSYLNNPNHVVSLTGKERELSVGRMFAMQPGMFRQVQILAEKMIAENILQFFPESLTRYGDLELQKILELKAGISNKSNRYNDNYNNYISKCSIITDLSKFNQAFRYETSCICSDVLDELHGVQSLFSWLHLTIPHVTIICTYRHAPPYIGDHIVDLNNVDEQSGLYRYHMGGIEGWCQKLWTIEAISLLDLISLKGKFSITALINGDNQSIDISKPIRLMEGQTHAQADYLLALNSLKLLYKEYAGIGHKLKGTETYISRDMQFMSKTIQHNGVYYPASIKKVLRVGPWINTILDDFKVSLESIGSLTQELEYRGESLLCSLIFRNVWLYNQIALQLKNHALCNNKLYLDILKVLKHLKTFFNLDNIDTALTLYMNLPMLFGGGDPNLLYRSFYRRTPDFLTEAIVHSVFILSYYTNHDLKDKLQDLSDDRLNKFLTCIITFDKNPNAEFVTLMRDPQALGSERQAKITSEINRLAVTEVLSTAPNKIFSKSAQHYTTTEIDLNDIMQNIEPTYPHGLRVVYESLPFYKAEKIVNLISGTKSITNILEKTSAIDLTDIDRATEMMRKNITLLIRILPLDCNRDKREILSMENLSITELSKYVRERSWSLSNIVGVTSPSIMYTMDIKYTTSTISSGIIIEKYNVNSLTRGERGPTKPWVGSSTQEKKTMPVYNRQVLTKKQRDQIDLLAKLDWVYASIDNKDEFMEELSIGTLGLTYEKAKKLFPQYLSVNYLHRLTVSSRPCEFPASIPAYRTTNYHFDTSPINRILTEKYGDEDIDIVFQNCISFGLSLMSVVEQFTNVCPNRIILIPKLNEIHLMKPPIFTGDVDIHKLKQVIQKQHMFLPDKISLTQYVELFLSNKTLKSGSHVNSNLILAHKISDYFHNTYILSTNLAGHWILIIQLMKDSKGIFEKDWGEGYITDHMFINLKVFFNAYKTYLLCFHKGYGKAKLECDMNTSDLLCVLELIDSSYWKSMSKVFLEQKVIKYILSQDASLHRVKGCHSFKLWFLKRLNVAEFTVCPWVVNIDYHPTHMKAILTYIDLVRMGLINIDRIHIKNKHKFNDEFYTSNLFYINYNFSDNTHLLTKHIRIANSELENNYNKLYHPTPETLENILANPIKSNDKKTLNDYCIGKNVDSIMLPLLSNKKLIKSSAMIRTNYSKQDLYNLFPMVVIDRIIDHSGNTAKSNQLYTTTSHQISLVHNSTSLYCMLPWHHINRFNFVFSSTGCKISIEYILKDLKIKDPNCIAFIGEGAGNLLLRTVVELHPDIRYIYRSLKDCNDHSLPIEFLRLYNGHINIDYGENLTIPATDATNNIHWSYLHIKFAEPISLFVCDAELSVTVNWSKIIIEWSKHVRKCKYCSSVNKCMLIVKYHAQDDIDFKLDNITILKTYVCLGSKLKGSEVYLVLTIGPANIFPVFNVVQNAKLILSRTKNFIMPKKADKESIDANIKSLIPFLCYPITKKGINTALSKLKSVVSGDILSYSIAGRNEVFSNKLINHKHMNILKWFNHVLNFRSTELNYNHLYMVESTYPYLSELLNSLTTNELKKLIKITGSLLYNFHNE
Sequence (P03421 whole entry, further chain): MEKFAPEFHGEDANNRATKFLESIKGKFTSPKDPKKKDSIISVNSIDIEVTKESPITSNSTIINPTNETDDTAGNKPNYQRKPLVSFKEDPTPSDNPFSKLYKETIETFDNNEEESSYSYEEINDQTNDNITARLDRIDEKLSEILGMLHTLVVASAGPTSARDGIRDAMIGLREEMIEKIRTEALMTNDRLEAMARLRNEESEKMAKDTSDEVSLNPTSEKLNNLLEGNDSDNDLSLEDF
Assay: RSV polymerase inhibition assay
Type: biochemical
Settings: IC50, 10 nM recombinant RSV complex, 2 h at 30° C.; Table E = <1 μM, Table F = <50 μM
// reported IC50 for each item listed
assay_readout: IC50

[
  {
    "compound": "COc1cc(C(=O)NC[C@@](O)(c2cc3c(c(-c4ccc(F)cc4)n2)OC[C@@]3(C)N)C(F)(F)F)cc(OC)c1OCCO [Compound 67]",
    "assay_readout": "IC50",
    "observed": "< 50 µM"
  },
  {
    "compound": "C[C@@]1(N)CNc2c1cc([C@](O)(CNC(=O)c1ccc3c(c1)CC(=O)N3CCO)C(F)(F)F)nc2-c1ccc(F)cc1 [Compound 82]",
    "assay_readout": "IC50",
    "observed": "< 1 µM"
  },
  {
    "compound": "C[C@@H](O)COc1cc(C(=O)NCC(O)(c2cc(C(C)(C)N)cc(-c3ccc(F)cc3)n2)C(F)(F)F)ccc1OC1CC1 (stereo partly drawn) [Compound 38]",
    "assay_readout": "IC50",
    "observed": "< 1 µM"
  }
]

###

// reported EC50 for each item listed
Test system: RSV subgenomic replicon 395 HeLa and APC126
Experiment: RSV subgenomic replicon assay (Renilla luciferase)
Assay type: cell-based
Details: human respiratory syncytial virus; RSV replicon cells (395 HeLa 7 days or APC126 3 days); Table G = less than 1 μM, Table H = equal to or higher than 1 μM and less than 50 μM
assay_readout: EC50

[
  {
    "compound": "COc1cc(C(=O)NCC(O)(c2cc3c(c(-c4ccc(F)cc4)n2)OCC3(C)N)C(F)(F)F)cc2c1NC(=O)NC2 (stereo not drawn)",
    "assay_readout": "EC50",
    "observed": "1 to 50 µM"
  },
  {
    "compound": "COc1cc(C(=O)NCC(O)(c2cc3c(c(-c4ccc(F)cc4)n2)OCC3(C)N)C(F)(F)F)cc2c1NC(=O)CC2 (stereo not drawn)",
    "assay_readout": "EC50",
    "observed": "< 1 µM"
  },
  {
    "compound": "COc1cc(C(=O)NC[C@@](O)(c2cc3c(c(-c4ccc(F)cc4)n2)OC[C@@]3(C)N)C(F)(F)F)cc2c1NCCC2",
    "assay_readout": "EC50",
    "observed": "< 1 µM"
  },
  {
    "compound": "COc1ccc(C(=O)NCC(O)(c2cc3c(c(-c4ccc(F)cc4)n2)OCC3(C)N)C(F)(F)F)cc1OC1CC1 (stereo not drawn)",
    "assay_readout": "EC50",
    "observed": "< 1 µM"
  },
  {
    "compound": "COc1cc(C(=O)NC[C@@](O)(c2cc3c(c(-c4ccc(F)cc4)n2)NC[C@@]3(C)N)C(F)(F)F)ccc1OCCO (single isomer, unassigned)",
    "assay_readout": "EC50",
    "observed": "< 1 µM"
  },
  {
    "compound": "C[C@@]1(N)CNc2c1cc([C@](O)(CNC(=O)c1ccc(OCCO)c(OC3CC3)c1)C(F)(F)F)nc2-c1ccc(F)cc1",
    "assay_readout": "EC50",
    "observed": "< 1 µM"
  }
]
